- TESTED_ON: T1, FX zymogen (UniProt P00742 41-179; P00742 183-488)
- T1 chain 1: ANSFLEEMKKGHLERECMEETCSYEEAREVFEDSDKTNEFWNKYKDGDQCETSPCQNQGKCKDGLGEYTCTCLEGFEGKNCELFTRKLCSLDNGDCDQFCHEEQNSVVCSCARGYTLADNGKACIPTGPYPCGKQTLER
- T1 chain 2: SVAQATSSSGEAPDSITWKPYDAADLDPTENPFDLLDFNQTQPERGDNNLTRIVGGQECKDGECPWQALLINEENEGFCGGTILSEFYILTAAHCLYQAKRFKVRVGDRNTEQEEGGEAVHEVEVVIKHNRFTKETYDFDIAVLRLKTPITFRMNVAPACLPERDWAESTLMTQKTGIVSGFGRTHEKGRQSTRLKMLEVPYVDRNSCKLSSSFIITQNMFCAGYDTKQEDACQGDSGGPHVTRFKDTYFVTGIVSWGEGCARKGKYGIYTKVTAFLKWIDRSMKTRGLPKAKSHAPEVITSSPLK
- TEST_NAME: BLI
READOUT_TYPE: Kd (nM)
Respond numerically; units are nM and should not be typed.

{"BINDER": "BIIB-12-1327 (antibody, V domains shown) VH: QVQLVESGGGVVQPGRSLRLSCAASGFTFSSYGMHWVRQAPGKGLEWVAVISYDGSNKYYADSVKGRFTISRDNSKNTLYLQMNSLRAEDTAVYYCAKLGLARGGGYGMDVWGQGTTVTVSS VL: EIVMTQSPATQYVSPGERATLSCRASQSVSSNLAWYQQKPGQAPRLLIYGASTRATGIPARFSGSGSGTEFTLTISSLQSEDFAVYYCQQYHNFPPTFGGGTKVEIK", "READOUT_VALUE": 38.3}

Task item: # input binder: BIIB-12-927 (antibody, V domains shown) VH: QVQLVQSGAEVKKPGASVKVSCKASGYTFTSYYMSWVRQAPGQGLEWMGIINPSGGSTSYAQKFQGRVTMTRDTSTSTVYMELSSLRSEDTAVYYCARDSGRKRYYYMDVWGKGTTVTVSS VL: EIVMTQSPATLSVSPGERATLSCRASQSVSSNLAWYQQKPGQAPRLLIYGASTRATGIPARFSGSGSGTEFTLTISSLQSEDFAVYYCQQFNLWPFTFGGGTKVEIK ; wanted: its Kd
Reply: 26.6
